Ref: patent US5534654A

- System: Cell Adhesion of Leukocytes onto Vascular Endothelial Cells of Human Umbilical Vein
- METHOD NOTES: Assay of Inhibition Activity Against Cell Adhesion of Leukocytes (HL60 cells) onto Vascular Endothelial Cells of Human Umbilical Vein
- Format: cell-based
- STATED CONDITIONS: 16-hour incubation with sample, then TNF 4 hr, HL-60 cells 30 min, Rose Bengal OD570
QUANTITY NAME: IC50 (µM)

Sample answers from the record:
CN(c1ccccc1/C=C/C=C/C(=O)NO)S(=O)(=O)c1ccccc1 :: 4.5
O=C(/C=C/C=C/C=C/c1ccccc1NS(=O)(=O)c1ccccc1)NO :: 6.5
CN(c1cccc(/C=C/C=C/C(=O)NO)c1)S(=O)(=O)c1ccccc1 :: 6.4
CN(c1cccc(C#C/C=C/C(=O)NO)c1)S(=O)(=O)c1ccccc1 :: 6.3
O=C(/C=C/C#Cc1cccc(NS(=O)(=O)c2ccccc2)c1)NO :: 2.5

P = O=C(/C=C/C=C/c1cccc(NS(=O)(=O)c2ccccc2)c1)NO
Q = O=C(/C=C/C=C/c1cc2ccccc2n1S(=O)(=O)c1ccccc1)NO
Lab note: check whether P or Q has the lower measured IC50. In your reply, give the label of the chosen option.
P
(P: 5.3 µM, Q: 8.3 µM)
